- measurement.target: Tyrosyl-tRNA synthetase, putative (Trypanosoma cruzi (strain CL Brener))
- protocol.notes: Trypanosoma cruzi tyrosyl tRNA synthetase (TcYRS) SOP
- Format: functional
- Set-up: scale not given: direction of the effect not stated beside the values
- conditions: 30 µM
value.kind: Percent Effect (%)
Give the value in % but do not write % after it.

Examples with their reported Percent Effect follow.
Prompt line: Report Percent Effect, nothing else, for this compound: c1cnc(N2CCOCC3(CCCN(CC4CC4)C3)C2)cn1 (stereo not drawn)
Response line: 5

Prompt line: Identify measured Percent Effect corresponding to Cc1cnn(CC2CN(CC(=O)Nc3nnc(C)s3)CCO2)c1 (stereo not drawn)
Response line: 12.2

Prompt line: For CCn1ccnc1CN1CCCC(CO)(Cc2cccc(Cl)c2)C1 (stereo not drawn) , write its Percent Effect.
Response line: 11.1

Prompt line: Using known records, supply Percent Effect for Cc1ccc(-c2cc(N)c(=O)n(CC(=O)NCC3CCCCC3)n2)s1
Response line: 3.9

Prompt line: Answer with the recorded Percent Effect of CC(C)CC(=O)N1C[C@@H]2CCN(c3ncccn3)C[C@@H]2C1 only.
Response line: -10

More entries:
Prompt line: Provide only the value of recorded Percent Effect for Cc1ccc(C(CNC(=O)NCc2cc[nH]n2)N2CCOCC2)o1 (stereo not drawn)
Response line: 10.8

Prompt line: Tell me measured Percent Effect for CC(C)NC(=O)[C@@H](NC(=O)N1CCN(c2ccc(Cl)cc2)CC1)C(C)C please.
Response line: -4.88

Prompt line: For COc1c(C2CCCN2C(=O)c2cccc(C(N)=O)c2)c(C)nn1C (stereo not drawn) , write its Percent Effect.
Response line: 2.35

Prompt line: Using the record for Cc1cc(NC(=O)NCc2cccnc2OC(C)C)n(C)n1 , state its measured Percent Effect.
Response line: 12.7

Prompt line: Provide only the value of recorded Percent Effect for CC1CN(CC(=O)NC2CCCC2)CCN1c1ccc2nncn2n1 (stereo not drawn)
Response line: 20.5

Prompt line: Please report the measured Percent Effect for O=C1c2cnc(N3CCOCC3)nc2CN1c1ccc2c(c1)OCO2
Response line: 21

Prompt line: Please report Percent Effect for the following compound: Cc1nnc(N2CCCC3(CN(Cc4ccc(C)s4)CCO3)C2)o1 (stereo not drawn)
Response line: 6.17

Prompt line: Return Percent Effect for the following compound: O=C(NCC1CC1)N1CCN(Cc2ccc3c(c2)OCCO3)CC1
Response line: 13.6

====

Reported Percent Effect values are given for each entry in this list.
- measurement.target: Sialic acid-binding Ig-like lectin 9 (Homo sapiens) (UniProt Q9Y336)
- Sequence (Q9Y336 whole entry): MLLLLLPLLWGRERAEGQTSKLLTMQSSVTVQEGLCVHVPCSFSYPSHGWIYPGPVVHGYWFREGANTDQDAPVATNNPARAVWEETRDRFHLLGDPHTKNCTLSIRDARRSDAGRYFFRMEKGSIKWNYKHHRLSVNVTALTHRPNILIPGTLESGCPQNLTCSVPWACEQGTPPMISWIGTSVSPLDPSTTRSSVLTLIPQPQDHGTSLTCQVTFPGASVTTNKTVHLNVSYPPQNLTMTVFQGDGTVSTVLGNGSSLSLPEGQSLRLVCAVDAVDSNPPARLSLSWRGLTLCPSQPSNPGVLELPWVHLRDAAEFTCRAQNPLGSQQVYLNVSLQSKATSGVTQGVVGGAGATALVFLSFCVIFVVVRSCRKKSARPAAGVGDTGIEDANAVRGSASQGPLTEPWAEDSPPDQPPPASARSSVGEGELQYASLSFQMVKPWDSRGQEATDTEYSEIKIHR
- protocol.notes: Hs-Siglec9 ALPHAscreen SOP 20170721
- Design: scale not given: direction of the effect not stated beside the values
- conditions: 10 µM
Express it in %; write the number only.

Prompt line: Please give the documented Percent Effect of Cc1nn(C)c2c(NCCCn3cccn3)ncnc12
Response line: -1.8

Prompt line: Note down Percent Effect recorded for CCCc1noc(CN2CCCC2c2c(C)nn(C)c2OC)n1 (centres undefined)
Response line: -1.2

Prompt line: Give reported Percent Effect value for Cc1nc(N(C)C)nc2c1COCC21CCN(C(=O)NC(C)C)C1 (centres undefined)
Response line: 2.32

Prompt line: Look up Percent Effect of Cc1ccc(CC(=O)N2Cc3nccn3CC(CN(C)C)C2)cc1 (centres undefined) and report it.
Response line: 9.23

====

Below: a set of entries, each annotated with reported Percent Effect.
- measurement.target: Chromo domain-containing protein 1 (Saccharomyces cerevisiae (strain ATCC 204508 / S288c) (Baker's yeast)) (UniProt P32657)
- Sequence (P32657 whole entry, the tested form may be a part): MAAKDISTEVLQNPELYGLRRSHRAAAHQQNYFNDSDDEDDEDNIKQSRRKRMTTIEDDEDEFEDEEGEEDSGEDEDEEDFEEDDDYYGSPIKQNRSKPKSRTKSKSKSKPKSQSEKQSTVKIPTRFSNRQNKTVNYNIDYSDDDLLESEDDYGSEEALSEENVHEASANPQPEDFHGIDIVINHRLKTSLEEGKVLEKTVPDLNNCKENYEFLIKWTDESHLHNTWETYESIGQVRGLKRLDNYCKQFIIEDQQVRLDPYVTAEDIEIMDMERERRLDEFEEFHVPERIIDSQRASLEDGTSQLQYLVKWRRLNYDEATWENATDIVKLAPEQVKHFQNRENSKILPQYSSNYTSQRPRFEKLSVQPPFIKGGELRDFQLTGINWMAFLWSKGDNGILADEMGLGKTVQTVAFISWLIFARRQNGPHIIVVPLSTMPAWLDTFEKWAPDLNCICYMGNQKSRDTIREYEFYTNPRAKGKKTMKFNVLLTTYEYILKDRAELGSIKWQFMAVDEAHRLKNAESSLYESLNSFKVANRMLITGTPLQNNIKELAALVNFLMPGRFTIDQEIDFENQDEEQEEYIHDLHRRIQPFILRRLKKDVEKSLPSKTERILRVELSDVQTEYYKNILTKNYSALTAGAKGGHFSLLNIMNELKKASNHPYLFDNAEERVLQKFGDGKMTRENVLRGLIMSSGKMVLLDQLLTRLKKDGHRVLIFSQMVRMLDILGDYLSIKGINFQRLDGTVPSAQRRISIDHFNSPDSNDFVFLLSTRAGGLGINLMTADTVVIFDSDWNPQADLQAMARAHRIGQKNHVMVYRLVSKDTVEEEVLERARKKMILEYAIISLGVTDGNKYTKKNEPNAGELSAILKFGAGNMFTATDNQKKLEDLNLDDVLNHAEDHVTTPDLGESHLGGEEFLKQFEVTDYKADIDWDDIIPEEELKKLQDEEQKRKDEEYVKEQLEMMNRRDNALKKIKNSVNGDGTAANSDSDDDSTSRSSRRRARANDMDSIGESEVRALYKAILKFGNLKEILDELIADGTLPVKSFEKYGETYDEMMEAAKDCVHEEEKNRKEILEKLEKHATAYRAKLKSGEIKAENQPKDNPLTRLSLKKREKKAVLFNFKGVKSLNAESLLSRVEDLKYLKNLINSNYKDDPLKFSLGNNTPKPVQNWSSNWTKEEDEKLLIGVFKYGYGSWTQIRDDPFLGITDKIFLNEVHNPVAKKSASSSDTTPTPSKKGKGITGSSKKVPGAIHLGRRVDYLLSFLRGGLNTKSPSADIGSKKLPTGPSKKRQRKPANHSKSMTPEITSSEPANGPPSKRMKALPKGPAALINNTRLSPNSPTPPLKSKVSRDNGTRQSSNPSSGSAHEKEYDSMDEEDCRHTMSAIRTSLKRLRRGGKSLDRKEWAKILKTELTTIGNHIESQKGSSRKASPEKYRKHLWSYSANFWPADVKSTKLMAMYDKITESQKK
- protocol.notes: ScCHD-1 Enzyme Inhibition Assay; further: in the data most compounds retested in dose-response had high values
- Format: functional
- Design: scale not given: direction of the effect not stated beside the values
- conditions: 30 µM
Provide the reading as a plain figure in %.

Example entries and their recorded answers appear below.
Prompt line: State, in one line, measured Percent Effect of Cc1cnn(C2CCCN(C(=O)c3cnc4ccccc4n3)C2)c1 (stereo not drawn)
Response line: -3.95

Prompt line: Determine from records and report Percent Effect for CN(C)Cc1ccc(C2CCCCN2C(=O)c2cccc(CO)n2)cc1 (stereo not drawn)
Response line: 80.3

Prompt line: Identify measured Percent Effect corresponding to CCc1cc(N2CCSCC2)n2nc(C)c(C)c2n1
Response line: -6.13

Prompt line: Note Percent Effect for the compound shown: Cc1cccnc1C(=O)N1CCCC(c2[nH]ncc2S(C)(=O)=O)C1 (stereo not drawn)
Response line: -20.1

Prompt line: Using known records, supply Percent Effect for COc1cc(CNCc2c(C)nn(C)c2N(C)C)ccc1C
Response line: 0.104

Prompt line: Fill in reported Percent Effect for this entry: C[C@H]1CN(Cc2cnn(C)c2)C[C@@]12CCN(Cc1cccnc1)C2=O
Response line: -3.65

Prompt line: Please indicate Percent Effect recorded for COC(=O)c1cccc(NC(=O)CN2CCN(S(C)(=O)=O)CC2)c1
Response line: -4.76

Prompt line: Please supply the value of reported Percent Effect for the item Cc1nc(NC(=O)CNC(=O)c2c(F)cccc2Cl)n[nH]1
Response line: -1.65

Others:
Prompt line: Return value of Percent Effect for input Cc1csc([C@@H]2C[C@@H]3CCN(C(=O)c4cc(C)on4)C[C@H]3O2)n1 , no commentary.
Response line: -9.47

Prompt line: Fill in Percent Effect for record CC(NC(=O)N(C)Cc1ccsc1)c1ccc2c(c1)NC(=O)CO2 (stereo not drawn)
Response line: -10.1

Prompt line: Answer with the recorded Percent Effect for the compound listed here: CN(C)C(=O)N1CCN(Cc2nnc(C(C)(C)C)o2)CC1
Response line: -0.0145
